- target: Abl kinase (h) (Homo sapiens (Human))
- Sequence (P00519 whole entry): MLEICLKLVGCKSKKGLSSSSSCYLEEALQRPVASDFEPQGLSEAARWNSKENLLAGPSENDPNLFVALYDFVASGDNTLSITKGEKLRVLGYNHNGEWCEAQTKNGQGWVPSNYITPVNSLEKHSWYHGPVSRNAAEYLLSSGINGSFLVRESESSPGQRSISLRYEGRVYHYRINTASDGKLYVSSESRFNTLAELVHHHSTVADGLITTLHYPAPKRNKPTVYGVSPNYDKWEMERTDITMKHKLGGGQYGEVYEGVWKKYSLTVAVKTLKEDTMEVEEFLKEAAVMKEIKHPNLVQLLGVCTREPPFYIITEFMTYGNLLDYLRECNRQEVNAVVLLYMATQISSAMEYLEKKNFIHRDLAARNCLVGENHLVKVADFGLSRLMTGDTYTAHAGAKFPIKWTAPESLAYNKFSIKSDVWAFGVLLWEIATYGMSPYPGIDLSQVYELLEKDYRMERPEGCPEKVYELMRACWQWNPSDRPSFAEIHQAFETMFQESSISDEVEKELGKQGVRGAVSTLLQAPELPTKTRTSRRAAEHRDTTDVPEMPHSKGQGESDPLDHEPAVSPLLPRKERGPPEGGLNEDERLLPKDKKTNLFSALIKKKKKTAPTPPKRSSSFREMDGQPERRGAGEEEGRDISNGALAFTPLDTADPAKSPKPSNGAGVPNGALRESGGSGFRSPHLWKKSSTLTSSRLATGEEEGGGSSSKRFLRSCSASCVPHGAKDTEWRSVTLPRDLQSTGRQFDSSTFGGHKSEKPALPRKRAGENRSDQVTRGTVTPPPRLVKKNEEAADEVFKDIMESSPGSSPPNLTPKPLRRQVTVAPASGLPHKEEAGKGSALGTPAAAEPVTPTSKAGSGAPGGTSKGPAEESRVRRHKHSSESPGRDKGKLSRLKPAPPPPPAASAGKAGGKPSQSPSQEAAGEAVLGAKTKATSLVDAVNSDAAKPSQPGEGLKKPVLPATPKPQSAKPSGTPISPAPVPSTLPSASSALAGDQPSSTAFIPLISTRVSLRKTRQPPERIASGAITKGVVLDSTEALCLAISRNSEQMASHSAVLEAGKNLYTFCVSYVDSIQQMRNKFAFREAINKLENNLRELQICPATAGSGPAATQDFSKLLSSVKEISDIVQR
- procedure summary: Cerep kinase profiling, HTRF assay, Abl kinase
- Format: biochemical
- assay context: Table 6; compound incubated at 10 μM; read-out: Percentage inhibition of kinase Abl
Label rule, in plain words: inhibition at 10 µM of 8% and up is satisfied, under 8% is not satisfied.

Example entries and their recorded answers appear below.
- smiles text: "COC(=O)c1cc2cc(NC(=O)C3CC3)cnc2[nH]1"
  label class: "not satisfied"
- smiles text: "O=C(Nc1cnc2[nH]c(C(=O)N3CCOCC3)cc2c1)c1cc([N+](=O)[O-])ccc1F"
  label class: "not satisfied"
- smiles text: "COCc1cc2cc(NC(=O)c3ccccc3Br)cnc2[nH]1"
  label class: "satisfied"

Attention now turns to another entry.
Determine whether measured inhibition at 10 µM meets or exceeds 8% for COC(=O)c1cc2cc(NC(=O)c3ccccc3Br)cnc2[nH]1 satisfied

---

Entries annotated with measured pIC50
- target: Abl kinase (h) (Homo sapiens (Human))
- procedure summary: Cerep kinase profiling, HTRF assay, Abl kinase
- Format: biochemical
- assay context: compounds tested by Cerep; read-out: IC50 on kinase Abl WT (category)
- Method: The inhibitory activity of the compounds of the chemical series on different protein kinases was evaluated by Cerep (Cerep Kinase Profiling Service; www.cerep.com). The kinases used in the tests in vitro are human recombinant proteins expressed in human cells, insect cells or in bacteria. […] The activity of the kinase was then detected by an HTRF assay. The HTRF assay (CisBio International) is based on fluorescence transfer, using Europium (Eu3+) cryptate and XL665 respectively as donor and acceptor. […]
pIC50: −log10 of the molar value.

- smiles text: "Cc1nc(-c2cccc(C(=O)Nc3cnc4[nH]c(C(=O)NCCCN(C)C)cc4c3)c2)cs1"
  measured parameter: "pIC50"
  measurement: "< 5.00"
- smiles text: "O=C(Nc1cnc2[nH]c(CNc3ccc(O)cc3)cc2c1)c1ccccc1Br"
  measured parameter: "pIC50"
  measurement: "5.00 to 7.00"
- smiles text: "COC(=O)c1cc2cc(NC(=O)c3ccccc3Br)cnc2[nH]1"
  measured parameter: "pIC50"
  measurement: "5.00 to 7.00"

Turning to the following molecule.
Can you share its pIC50? I mean this molecule: O=C(Nc1cnc2[nH]c(C(=O)NCCN3CCOCC3)cc2c1)c1cccc(F)c1 < 5.00

Values compiled from patent US8580815B2.
